For each entry below, report its combination Emax value.
# Test system: MN-60 (B-Lymphoblastic Leukemia)
# METHOD: combination Emax (second highest fraction inhibited in the dose matrix, 72 h); higher = more inhibition; extreme values may be limits of the assay
Answers are plain numbers.

// input: 7 compounds below; output: combination Emax for each
1. COc1cccc(OCCCN)c1-c1cc(Nc2cnc(C#N)cn2)n[nH]1 [Prexasertib] + CCc1c2c(nc3ccc(O)cc13)-c1cc3c(c(=O)n1C2)COC(=O)[C@]3(O)CC [SN-38] (first compound max 1 µM, 7x7, partner max 0.3 µM)
2. COc1cccc(OCCCN)c1-c1cc(Nc2cnc(C#N)cn2)n[nH]1 [Prexasertib] + O=C(c1cc(Cc2n[nH]c(=O)c3ccccc23)ccc1F)N1CCN(C(=O)C2CC2)CC1 [Olaparib] (first compound max 1 µM, 7x7, partner max 10 µM)
3. Cc1c2c(nn1C)CSCc1cc(n(C)n1)CSc1cc(c3ccccc3c1)OCCCc1c(C(=O)O)n(C)c3c-2c(Cl)ccc13 [AZD5991] + CC1(C)CCC(CN2CCN(c3ccc(C(=O)NS(=O)(=O)c4ccc(NCC5CCOCC5)c([N+](=O)[O-])c4)c(Oc4cnc5[nH]ccc5c4)c3)CC2)=C(c2ccc(Cl)cc2)C1 [Venetoclax] (first compound max 1 µM, 7x7, partner max 1 µM)
4. COc1cccc(OCCCN)c1-c1cc(Nc2cnc(C#N)cn2)n[nH]1 [Prexasertib] + CN(C)CCCOc1ccc(-c2ccc3ncc4c(c3c2)n(C2CCOCC2)c(=O)n4C)cn1 [AZD0156] (first compound max 1 µM, 7x7, partner max 1 µM)
5. CN(CCO)CC[C@H](CSc1ccccc1)Nc1ccc(S(=O)(=O)NC(=O)c2ccc(N3CCC([C@@H](O)c4ccccc4-c4ccc(Cl)cc4)CC3)cc2)cc1S(=O)(=O)C(F)(F)F [AZD4320] + Cn1cnc2c(F)c(Nc3ccc(Br)cc3Cl)c(C(=O)NOCCO)cc21 [Selumetinib] (first compound max 1 µM, 7x7, partner max 3 µM)
6. Cc1c2c(nn1C)CSCc1cc(n(C)n1)CSc1cc(c3ccccc3c1)OCCCc1c(C(=O)O)n(C)c3c-2c(Cl)ccc13 [AZD5991] + Cc1cc2ncnn2cc1Nc1ncc2c(n1)n(C1CCOCC1)c(=O)n2C [AZD7648] (first compound max 1 µM, 7x7, partner max 10 µM)
7. C[C@@H](Oc1cc(-c2cnn(C3CCNCC3)c2)cnc1N)c1c(Cl)ccc(F)c1Cl [Crizotinib] + Cn1cnc2c(F)c(Nc3ccc(Br)cc3Cl)c(C(=O)NOCCO)cc21 [Selumetinib] (first compound max 10 µM, 7x7, partner max 10 µM)

Given back:
1: 0.825; 2: 0.424; 3: 0.323; 4: 0.546; 5: 0.321; 6: 0.15; 7: 0.38
